Entry source: ChEMBL document CHEMBL5325408

study-target: Myeloperoxidase (Homo sapiens, UniProt P05164)
Sequence (P05164 165-273 limits assumed): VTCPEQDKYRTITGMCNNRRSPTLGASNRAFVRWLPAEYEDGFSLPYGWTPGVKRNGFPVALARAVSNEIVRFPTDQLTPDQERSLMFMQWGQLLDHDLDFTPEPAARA
Sequence (P05164 279-745 limits assumed): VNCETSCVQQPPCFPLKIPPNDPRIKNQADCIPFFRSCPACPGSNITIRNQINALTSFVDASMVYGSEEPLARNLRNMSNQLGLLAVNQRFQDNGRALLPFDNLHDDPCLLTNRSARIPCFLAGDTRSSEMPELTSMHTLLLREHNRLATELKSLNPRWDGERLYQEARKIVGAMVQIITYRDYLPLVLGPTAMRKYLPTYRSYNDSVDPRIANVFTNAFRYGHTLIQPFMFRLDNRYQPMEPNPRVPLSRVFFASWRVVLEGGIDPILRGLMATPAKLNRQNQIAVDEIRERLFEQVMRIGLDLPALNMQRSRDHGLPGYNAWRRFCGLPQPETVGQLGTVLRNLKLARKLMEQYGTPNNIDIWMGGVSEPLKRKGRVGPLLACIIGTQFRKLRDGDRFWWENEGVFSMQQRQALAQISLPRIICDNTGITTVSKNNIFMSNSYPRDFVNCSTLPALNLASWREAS
assay-comment: Inhibition of human MPO peroxidase activity incubated in presence of H2O2 by amplex red assay
Please go through the items and note down their IC50.
Numbers only, in µM.

Please review the entries below; each comes with its answer.
Sample O=C(Cn1c(=S)[nH]c2ccccc21)Nc1ccccc1 ; IC50 observed: 95.4

Sample O=C(Cn1c(=S)[nH]c2ccccc21)NCc1ccccc1 ; IC50 observed: 97.3

Field: next compound
Sample NNC(=O)Cn1c(=S)[nH]c2ccccc21 ; IC50 observed: 82.7

---

study-target: Myeloperoxidase (Homo sapiens) (UniProt P05164)
Sequence (P05164 165-273 limits assumed): as the sequence (P05164 165-273 limits assumed) above
Sequence (P05164 279-745 limits assumed): as the sequence (P05164 279-745 limits assumed) above
assay-comment: Inhibition of human MPO peroxidase activity at 100 uM incubated in presence of H2O2 by amplex red assay relative to control
Assign class by inhibition: not lower than 20% means Y; lower than 20% means N.

# example entries with known answers
Kindly determine if inhibition recorded for COc1ccc(NC(=O)Cn2c(=S)[nH]c3ccccc32)cc1 is above or exactly 20%.
Y

Kindly determine if inhibition recorded for COc1ccccc1NC(=O)CSc1nc2ccccc2[nH]1 is above or exactly 20%.
N

Kindly determine if inhibition recorded for Cc1ccc(NC(=O)CSc2nc3ccccc3[nH]2)cc1 is above or exactly 20%.
N

Kindly determine if inhibition recorded for Cc1cccc(NC(=O)Cn2c(=S)[nH]c3ccccc32)c1 is above or exactly 20%.
Y

Kindly determine if inhibition recorded for O=C(Cn1c(=S)[nH]c2ccccc21)Nc1ccc(Cl)cc1 is above or exactly 20%.
Y

Kindly determine if inhibition recorded for NNC(=O)Cn1c(=S)[nH]c2ccccc21 is above or exactly 20%.
Y

Kindly determine if inhibition recorded for O=C(Cn1c(=S)[nH]c2ccccc21)Nc1ccccc1[N+](=O)[O-] is above or exactly 20%.
Y

Kindly determine if inhibition recorded for Cc1ccccc1NC(=O)Cn1c(=S)[nH]c2ccccc21 is above or exactly 20%.
Y

Kindly determine if inhibition recorded for O=C(Cn1c(=S)[nH]c2ccccc21)Nc1ccccc1 is above or exactly 20%.
Y

Kindly determine if inhibition recorded for O=C(Cn1c(=S)[nH]c2ccccc21)Nc1cccc(Cl)c1 is above or exactly 20%.
Y

More entries:
Kindly determine if inhibition recorded for COc1ccccc1NC(=O)Cn1c(=S)[nH]c2ccccc21 is above or exactly 20%.
N

Kindly determine if inhibition recorded for Cc1cccc(NC(=O)CSc2nc3ccccc3[nH]2)c1 is above or exactly 20%.
N

Kindly determine if inhibition recorded for O=C(Cn1c(=S)[nH]c2ccccc21)Nc1ccccc1Cl is above or exactly 20%.
Y

Kindly determine if inhibition recorded for O=C(Cn1c(=S)[nH]c2ccccc21)NCc1ccccc1 is above or exactly 20%.
Y
